Target: HCMV polymerase (Human cytomegalovirus, UniProt P08546)
Construct: made in house; host or cells: recombinant baculovirus-infected SF-9 cells
Sequence (P08546 whole entry): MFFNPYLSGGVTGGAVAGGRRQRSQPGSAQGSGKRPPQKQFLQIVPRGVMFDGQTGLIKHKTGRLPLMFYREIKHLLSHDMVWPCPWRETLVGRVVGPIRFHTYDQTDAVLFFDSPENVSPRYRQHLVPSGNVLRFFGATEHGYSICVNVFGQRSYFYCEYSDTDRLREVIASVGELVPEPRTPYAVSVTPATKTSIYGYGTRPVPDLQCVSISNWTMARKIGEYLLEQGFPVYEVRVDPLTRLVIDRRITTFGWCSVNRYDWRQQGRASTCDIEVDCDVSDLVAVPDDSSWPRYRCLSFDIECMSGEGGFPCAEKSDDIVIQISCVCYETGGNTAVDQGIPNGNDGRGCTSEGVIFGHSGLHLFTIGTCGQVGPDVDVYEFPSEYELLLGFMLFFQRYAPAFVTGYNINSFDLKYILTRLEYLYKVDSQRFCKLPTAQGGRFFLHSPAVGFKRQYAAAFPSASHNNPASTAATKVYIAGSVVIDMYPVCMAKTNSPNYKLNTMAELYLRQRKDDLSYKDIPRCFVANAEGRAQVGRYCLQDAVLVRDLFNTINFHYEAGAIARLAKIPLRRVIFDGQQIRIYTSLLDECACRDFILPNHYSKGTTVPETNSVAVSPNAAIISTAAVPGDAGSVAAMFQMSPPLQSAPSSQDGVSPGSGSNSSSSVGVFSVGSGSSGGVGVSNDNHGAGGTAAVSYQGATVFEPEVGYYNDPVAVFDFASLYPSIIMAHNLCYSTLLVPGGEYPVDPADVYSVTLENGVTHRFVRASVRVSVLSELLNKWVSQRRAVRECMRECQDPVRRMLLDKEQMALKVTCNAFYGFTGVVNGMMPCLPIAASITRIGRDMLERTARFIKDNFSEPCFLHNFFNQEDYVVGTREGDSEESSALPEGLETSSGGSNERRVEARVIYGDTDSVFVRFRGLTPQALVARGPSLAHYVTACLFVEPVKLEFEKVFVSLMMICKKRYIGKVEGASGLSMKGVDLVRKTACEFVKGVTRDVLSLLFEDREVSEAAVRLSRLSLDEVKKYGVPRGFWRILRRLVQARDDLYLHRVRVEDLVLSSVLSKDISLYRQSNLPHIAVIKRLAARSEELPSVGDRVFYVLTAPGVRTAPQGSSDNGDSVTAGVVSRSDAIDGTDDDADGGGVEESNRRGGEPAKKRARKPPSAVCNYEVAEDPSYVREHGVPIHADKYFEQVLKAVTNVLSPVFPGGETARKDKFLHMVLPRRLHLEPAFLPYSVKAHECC
Test: HCMV polymerase scintillation proximity assay (SPA), modified version
Assay type: biochemical
Conditions: CMV polymerase; Table 1; modified assay with 4.5 mM DTT, compounds in 100% DMSO; read-out: Antiviral Selective Polymerase IC50 Values, CMV
Listing of recorded pIC50 by entry.
Scale for pIC50: -log10 of concentration given in mol/L; no unit attached.

Lookup result for O=C(NCc1ccc(Cl)cc1)c1cnc2c(F)cc(C#CCF)cc2c1O [Example 143] ; measured pIC50: 5.52

pIC50 recorded for this molecule, O=C(NCc1ccc(Cl)cc1)c1cnc2c(F)cc(S(=O)(=O)NCCCBr)cc2c1O [Example 248] , is 4.94

// recorded pIC50 for O=C(NCc1ccc(Cl)cc1)c1cnc2cc3c(cc2c1O)CCC3 [Example 64] : 5.07

The molecule Nc1ccc2c(O)c(C(=O)NCc3ccc(Cl)cc3)cnc2c1 [Example 2] showed pIC50 equal to 5.28

According to the records, this molecule O=C(CBr)OCCCc1cc(F)c2ncc(C(=O)NCc3ccc(Cl)cc3)c(O)c2c1 [Example 145] displays pIC50 of 5.54

Memo: CSc1ccc2c(O)c(C(=O)NCc3ccc(Cl)cc3)cnc2c1 [Example 278] , reported pIC50: 5.68

Sure, the documented pIC50 for O=C(NCc1ccc(Cl)cc1)c1cnc2c(F)cc(S(=O)(=O)NCc3cc(C(F)(F)F)cc(C(F)(F)F)c3)cc2c1O [Example 236] is 5.18

pIC50 in this record for O=C(NCc1ccc(Cl)cc1)c1cnc2c(F)cc(SCCN3CCOCC3)cc2c1O [Example 174] : 4.54

---

Target: HCMV polymerase (Human cytomegalovirus)
Construct: made in house; host or cells: recombinant baculovirus-infected SF-9 cells
Assay: HCMV polymerase scintillation proximity assay (SPA), modified version
Type: biochemical
Conditions: CMV polymerase; Table 1; modified assay with 4.5 mM DTT, compounds in 100% DMSO; read-out: Antiviral Selective Polymerase IC50 Values, CMV
Protocol: The HCMV polymerase assay is performed using a scintillation proximity assay (SPA) as described in several references, such as N. D. Cook, et al., Pharmaceutical Manufacturing International, pages 49-53 (1992); K. Takeuchi, Laboratory Practice, September issue (1992); U.S. Pat. No. 4,568,649 (1986); which are incorporated by reference herein. Reactions are performed in 96-well plates. […] Plates are incubated 10 min. at 37° C., then equilibrated to room temperature, and counted on a Packard Topcount. […]
Where a name gives a salt, the structure may show the parent alone.
Quantity: pIC50
# pIC50 = -log10(concentration in molar units)

Answered examples (3):
- Compound: "O=C(NCc1ccc(Cl)cc1)c1cnc2cc(C(F)(F)F)c(SCc3ccccc3)cc2c1O [Example 72]"
  Test Value: 5.03
- Compound: "NCCSc1cc(F)c2ncc(C(=O)NCc3ccc(Cl)cc3)c(O)c2c1 [Example 172, hydrobromide]"
  Test Value: 4.45
- Compound: "O=C(NCc1ccc(Cl)cc1)c1cnc2c(F)cc(S(=O)(=O)NCc3ccncc3)cc2c1O [Example 219]"
  Test Value: 4.96

// sample O=C(NCc1ccc(Cl)cc1)c1cnc2c(F)cc(S(=O)(=O)NCCc3c[nH]cn3)cc2c1O [Example 207] , its pIC50 was 4.84

CCN(CCO)c1ccc2ncc(C(=O)NCc3ccc(Cl)cc3)c(O)c2c1 [Example 189] has a reported pIC50 of 4.71

Record summary for COCCNc1c(F)cc2c(O)c(C(=O)NCc3ccc(Cl)cc3)cnc2c1F [Example 88] : reported pIC50 = 4.52

pIC50 measured on CC(C)(C)CNS(=O)(=O)c1cc(F)c2ncc(C(=O)NCc3ccc(Cl)cc3)c(O)c2c1 [Example 222] = 4.94

Data provenance is patent US6093732A.
